Experiment: BSK_LPS_SRB: Viability Assessment in the BioMAP Diversity Plus: LPS Assay (AID 2283079);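 further: total protein by sulforhodamine B absorbance as a cytotoxicity measure; measured one day after compound addition; fitted in both directions against DMSO so loss or gain of signal counts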
Details: primary human HUVEC with PBMC
Active and inactive are the calls of the source. How the source made its calls: active means hit-call score of the fitted dose curve at least 0.9, where 1 is the maximum; inactive means score below 0.9.
Give one outcome, nothing more. List: active, inactive

Answer briefly: the call reported for COc1ccc(CO)cc1 in this assay.
inactive

How about this compound: COCC(=O)N(c1c(C)cccc1C)N1CCOC1=O
inactive

Would you kindly repeat that for CC(C)COP(=O)(OCC(C)C)OCC(C)C ?
inactive

Now give it for O=[N+]([O-])C=Cc1ccccc1 too.
active

What about CCCOC(=O)c1ccccc1C(=O)OCCC ?
inactive

Same question for CCc1cc(C)cc(CC)c1-c1c(OC(=O)C(C)(C)C)n2n(c1=O)CCOCC2 please.
inactive

What do you have for CC(C)(C)C(=O)CCl ?
inactive

Try this compound too: CCCCCCCCCCCC#N
inactive

Again, but for O=S(=O)(c1ccccc1)c1ccccc1
inactive

For O=C1C(Cl)=C(Cl)C(=O)C(Cl)=C1Cl then?
active

Now the same for O=C(CCl)c1ccccc1
active

// next record O=[N+]([O-])O
inactive

Request: c1ccc(Nc2ccc3ccccc3c2)cc1
inactive

Repeat for the following compound: CC(=O)/C=C/c1ccccc1
inactive

Also, O=c1c2ccccc2c(=O)c2c1cc(Cl)c1[nH]c3c([nH]c12)c(Cl)cc1c(=O)c2ccccc2c(=O)c13 please.
inactive

Another compound: [Cd+2].[Cl-].[Cl-]
inactive

Let us now turn to C=CC(=O)OCC(CC)CCCC (configuration not stated)
inactive

* * *

Assay: ATG_EGR_CIS: Attagene CIS-FACTORIAL HepG2 Assay for human Early Growth Response 1 (EGR1) (AID 2282938)
Conditions: HepG2 Attagene CIS-FACTORIAL EGR reporter mRNA; actives raise or lower the signal
Activity calls are given as the source filed them. Rule for the calls: active = hit-call score of the fitted dose curve at least 0.9, where 1 is the maximum; inactive = score below 0.9.
Field 'call' accepts active, inactive

For C[N+](C)(C)CC(=O)[O-] , which call appears in the assay record?
inactive

Then CCc1cccc(C)c1N(C(=O)CCl)[C@@H](C)COC ?
active

Can you handle O=[N+]([O-])c1ccc(Cl)cc1 next?
inactive

Please answer likewise for CCC(C)(C)O
inactive

What about this compound? Oc1ccc(Cl)cc1
inactive

Entry to check: ClC1=C(Cl)[C@]2(Cl)[C@@H]3[C@@H](Cl)[C@H](Cl)C[C@@H]3[C@@]1(Cl)C2(Cl)Cl
inactive

Same thing, different compound: C=CC(=O)OCCCCOC(=O)C=C
active

Can you handle NNc1ccccc1 next?
inactive

Thanks! And CCC(C)c1cc(C(C)(C)C)cc(-n2nc3ccccc3n2)c1O (configuration not stated) ?
inactive

Next compound: COCC(=O)N(c1c(C)cccc1C)N1CCOC1=O
inactive

Would you mind doing N#Cc1cccc(C#N)c1 as well?
inactive

// next record C[C@]12CCC(=O)C(O)=C1CC[C@@H]1[C@@H]2CC[C@]2(C)C(=O)CC[C@@H]12
inactive

* * *

Read-out: Monokine induced gamma interferon (MIG), CXCL9 (gene 4283)
Test: BSK_SAg_MIG: BioMAP Diversity Plus: SAg Assay for Monokine induced gamma interferon (MIG) Biomarker Activity (AID 2283092)
Conditions: primary human HUVEC with PBMC; actives raise or lower the signal
Activity calls are given as the source filed them. Rule for the calls: active = hit-call score of the fitted dose curve at least 0.9, where 1 is the maximum; inactive = score below 0.9.
Entry note: the call must match one of true (1) for active, false (0) for inactive

What did the test return for C=CCN(CC=C)C(=O)C(Cl)Cl ?
false (0)

Do the same for CC(C)CCCCCCCOP(=O)(Oc1ccccc1)Oc1ccccc1 please
true (1)

Cool, now CCc1cc(C)cc(CC)c1-c1c(OC(=O)C(C)(C)C)n2n(c1=O)CCOCC2
false (0)

Ok, now O=C(O)CCCc1ccc(N(CCCl)CCCl)cc1
false (0)

And for O=C(CCl)c1ccccc1 ?
true (1)

// repeat for Nc1ccc(-c2ccc(N)c(N)c2)cc1N and report
false (0)

Similarly, [Cd+2].[Cl-].[Cl-] ?
false (0)

Input CC(C)CCCCCCCOC(=O)c1ccccc1C(=O)OCCCCCCCC(C)C
false (0)

Another molecule to look at: Oc1cc(Cl)ccc1Cl
false (0)

Also check CNC(=O)Oc1cc(C)c(SC)c(C)c1
false (0)

Can you check O=[N+]([O-])c1ccc(Cl)cc1 next?
false (0)

How about CC1(C)[C@H](C(=O)O[C@H](C#N)c2cccc(Oc3ccccc3)c2)[C@@H]1C=C(Br)Br ?
false (0)

// query: O=P1(NCCCl)OCCCN1CCCl (stereo not drawn)
false (0)
